Target: HDAC6 (Homo sapiens, UniProt Q9UBN7)
Sequence (Q9UBN7 whole entry): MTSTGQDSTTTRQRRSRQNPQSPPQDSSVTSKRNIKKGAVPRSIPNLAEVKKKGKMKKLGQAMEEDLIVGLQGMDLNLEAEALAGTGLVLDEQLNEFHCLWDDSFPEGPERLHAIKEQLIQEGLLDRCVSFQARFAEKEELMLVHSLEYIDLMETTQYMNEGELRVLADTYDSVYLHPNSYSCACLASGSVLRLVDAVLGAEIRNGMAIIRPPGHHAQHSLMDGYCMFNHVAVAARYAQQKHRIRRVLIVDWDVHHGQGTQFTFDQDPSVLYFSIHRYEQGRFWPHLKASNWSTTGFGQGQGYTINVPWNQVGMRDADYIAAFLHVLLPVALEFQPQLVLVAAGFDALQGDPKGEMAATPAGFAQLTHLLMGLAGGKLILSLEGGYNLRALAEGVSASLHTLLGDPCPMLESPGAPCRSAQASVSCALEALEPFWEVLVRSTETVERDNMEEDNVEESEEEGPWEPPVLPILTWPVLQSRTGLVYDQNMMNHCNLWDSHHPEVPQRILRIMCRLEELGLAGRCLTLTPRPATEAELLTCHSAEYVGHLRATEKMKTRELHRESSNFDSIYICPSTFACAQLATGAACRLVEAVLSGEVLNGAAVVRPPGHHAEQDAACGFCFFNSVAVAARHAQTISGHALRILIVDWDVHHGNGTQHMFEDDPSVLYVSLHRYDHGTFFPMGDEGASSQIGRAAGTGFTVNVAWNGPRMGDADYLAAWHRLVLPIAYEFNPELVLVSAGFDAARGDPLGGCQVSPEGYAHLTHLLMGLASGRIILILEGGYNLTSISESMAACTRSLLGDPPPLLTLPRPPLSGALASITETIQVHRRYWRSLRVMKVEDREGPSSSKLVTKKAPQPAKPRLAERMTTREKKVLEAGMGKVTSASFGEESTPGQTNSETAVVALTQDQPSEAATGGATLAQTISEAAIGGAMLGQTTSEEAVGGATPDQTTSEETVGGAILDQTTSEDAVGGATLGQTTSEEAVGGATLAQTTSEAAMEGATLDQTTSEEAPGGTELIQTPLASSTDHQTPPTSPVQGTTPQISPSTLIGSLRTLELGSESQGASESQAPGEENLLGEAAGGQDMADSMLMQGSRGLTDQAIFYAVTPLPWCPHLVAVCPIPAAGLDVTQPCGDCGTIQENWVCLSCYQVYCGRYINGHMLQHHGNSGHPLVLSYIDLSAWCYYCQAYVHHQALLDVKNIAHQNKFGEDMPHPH
Test: HDAC enzymatic assay, HDAC6
Type: biochemical
Details: fluorogenic tetrapeptide RHKKAc substrate 10 μM; read-out: HDAC isoforms IC50 (nM), 6
# Lookup of reported IC50 keyed by entry

Below, each entry is followed by its recorded IC50 result.
Short answer for `O=C1NCCC[C@@H]1C(=O)N[C@@H](CCCCCS)C(=O)Nc1ccccc1` : IC50 was < 50 nM

Measured IC50 of `O=C1CCC[C@@H](C(=O)N[C@@H](CCCCCS)C(=O)NC2CCCC2)N1` : < 50 nM

Memo: `CN1C(=O)CCC[C@H]1C(=O)N[C@@H](CCCCCS)C(=O)Nc1ccccc1` , reported IC50: < 50 nM

Lab note: `O=C1NC[C@@H](c2ccccc2)[C@@H]1C(=O)N[C@@H](CCCCCS)C(=O)Nc1ccccc1` gave IC50 of < 50 nM

IC50 for `O=C1CCC[C@@H](C(=O)N[C@@H](CCCCCS)C(=O)Nc2ccccc2)N1` is < 50 nM

More entries:
Sample `O=C1CCC[C@@H](C(=O)N[C@@H](CCCCCS)C(=O)NCc2cccc(OCc3ccccc3)c2)N1` ; IC50 observed: 50 to 100 nM

Please fill in: IC50 reported for `O=C1CCC[C@@H](C(=O)N[C@@H](CCCCCS)C(=O)NCc2ccc(C(F)(F)F)cc2)N1` = 100 to 500 nM

`O=C1CCC[C@H](C(=O)N[C@@H](CCCCCS)C(=O)Nc2ccccc2)N1` yielded IC50 of < 50 nM
